Numbers sourced from patent US8912169B2.

# target: OXA-1 (Escherichia coli, UniProt P13661)
# protocolText: β-lactamase enzyme inhibition, OXA-1
# conditionDescription: substrate Nitrocefin 100 μM, 486 nm; read-out: Class D OXA-1 IC50
measure: IC50

Lab entry: OXA-1 (Escherichia coli, UniProt P13661) assay, molecule O=C(CC1CCC(O)CC1)N[C@H]1Cc2cccc(C(=O)O)c2OB1O (some centres unmarked) [Example 47] , IC50 = < 100 nM

Lab entry: OXA-1 (Escherichia coli, UniProt P13661) assay, molecule N=C(N)N[C@H]1CC[C@H](CC(=O)N[C@H]2Cc3cccc(C(=O)O)c3OB2O)CC1 [Example 9] , IC50 = < 100 nM

Lab entry: OXA-1 (Escherichia coli, UniProt P13661) assay, molecule O=C(C[C@H]1CC[C@H](NCCNc2ncccn2)CC1)N[C@H]1Cc2cccc(C(=O)O)c2OB1O [Example 72] , IC50 = < 100 nM

Lab entry: OXA-1 (Escherichia coli, UniProt P13661) assay, molecule CC(C)NCCN[C@H]1CC[C@H](CC(=O)N[C@H]2Cc3cccc(C(=O)O)c3OB2O)CC1 [Example 71] , IC50 = < 100 nM

Lab entry: OXA-1 (Escherichia coli, UniProt P13661) assay, molecule O=C(C[C@H]1CC[C@H](NCCN(CC2CC2)CC2CC2)CC1)N[C@H]1Cc2cccc(C(=O)O)c2OB1O [Example 75] , IC50 = < 100 nM

Lab entry: OXA-1 (Escherichia coli, UniProt P13661) assay, molecule CC(NC(=O)C1C[C@H](N)[C@@H](N)C1)C(=O)N[C@H]1Cc2cccc(C(=O)O)c2OB1O (some centres unmarked) [Example 38] , IC50 = 100 to 1000 nM

Lab entry: OXA-1 (Escherichia coli, UniProt P13661) assay, molecule CN(C)CCN(C)[C@H]1CC[C@H](CC(=O)N[C@H]2Cc3cccc(C(=O)O)c3OB2O)CC1 [Example 23] , IC50 = 100 to 1000 nM

Lab entry: OXA-1 (Escherichia coli, UniProt P13661) assay, molecule O=C(C[C@H]1CC[C@H](NCCO)CC1)N[C@H]1Cc2cccc(C(=O)O)c2OB1O [Example 26] , IC50 = 100 to 1000 nM

====

# target: OXA-1 (Escherichia coli)
# protocolText: β-lactamase enzyme inhibition, OXA-1
# conditionDescription: substrate Nitrocefin 100 μM, 486 nm; read-out: Class D OXA-1 IC50
pIC50: −log10 of the molar value.
Kindly supply the reported pIC50 values for the records listed here.

Lab entry: OXA-1 (Escherichia coli) assay, molecule CSCCN[C@H]1CC[C@H](CC(=O)N[C@H]2Cc3cccc(C(=O)O)c3OB2O)CC1 , pIC50 = > 7.00

Lab entry: OXA-1 (Escherichia coli) assay, molecule NCC(N)[C@H]1CC[C@H](CC(=O)N[C@H]2Cc3cccc(C(=O)O)c3OB2O)CC1 (some centres unmarked) , pIC50 = > 7.00

Lab entry: OXA-1 (Escherichia coli) assay, molecule CNCCN[C@H]1CC[C@H](C(CO)C(=O)N[C@H]2Cc3cccc(C(=O)O)c3OB2O)CC1 (some centres unmarked) , pIC50 = > 7.00

Lab entry: OXA-1 (Escherichia coli) assay, molecule NCCC(N)[C@H]1CC[C@H](CC(=O)N[C@H]2Cc3cccc(C(=O)O)c3OB2O)CC1 (some centres unmarked) , pIC50 = > 7.00

Lab entry: OXA-1 (Escherichia coli) assay, molecule NCCNC(=O)N[C@H]1CC[C@H](CC(=O)N[C@H]2Cc3cccc(C(=O)O)c3OB2O)CC1 , pIC50 = > 7.00

Lab entry: OXA-1 (Escherichia coli) assay, molecule NC[C@H]1CC[C@H](C(=O)N[C@H]2Cc3cccc(C(=O)O)c3OB2O)CC1 , pIC50 = > 7.00

Lab entry: OXA-1 (Escherichia coli) assay, molecule N=C(N)NC[C@H]1CC[C@H](CC(=O)N[C@H]2Cc3cccc(C(=O)O)c3OB2O)CC1 , pIC50 = > 7.00

Lab entry: OXA-1 (Escherichia coli) assay, molecule NCC(=O)N[C@H]1CC[C@H](CC(=O)N[C@H]2Cc3cccc(C(=O)O)c3OB2O)CC1 , pIC50 = > 7.00

====

# target: VIM-2 (Escherichia coli, UniProt Q5U7L7)
# Construct: made in house; host or cells: E. coli BL21(DE3)
# protocolText: β-lactamase enzyme inhibition, VIM-2
# Assay type: biochemical
# conditionDescription: substrate Nitrocefin 100 μM, 486 nm; read-out: Class B VIM-2 IC50
# Procedure: For Vim-2 metallo β-lactamase, the procedure was identical with the following exceptions, first the protein was not pH adjusted to pH 5 with 50 mM sodium acetate, second, the chromatography step was changed to a 5 ml Q sepharose anion exchange column pre-equilibrated with 50 mM Hepes pH 7.5, and elution of the protein was achieved by a linear gradient of NaCl (0-600 mM). […]
measure: IC50

Lab entry: VIM-2 (Escherichia coli, UniProt Q5U7L7) assay, compound O=C(C[C@H]1CC[C@H](N2C=NCC2)CC1)N[C@H]1Cc2cccc(C(=O)O)c2OB1O , IC50 = 0.1 to 1 µM

Lab entry: VIM-2 (Escherichia coli, UniProt Q5U7L7) assay, compound NCCNC(=O)N[C@H]1CC[C@H](CC(=O)N[C@H]2Cc3cccc(C(=O)O)c3OB2O)CC1 , IC50 = 0.1 to 1 µM

Lab entry: VIM-2 (Escherichia coli, UniProt Q5U7L7) assay, compound NCCNC(=O)NC1CC(CC(=O)N[C@H]2Cc3cccc(C(=O)O)c3OB2O)C1 (some centres unmarked) , IC50 = 0.1 to 1 µM

Lab entry: VIM-2 (Escherichia coli, UniProt Q5U7L7) assay, compound N[C@H]1CC[C@H](NCC(=O)N[C@H]2Cc3cccc(C(=O)O)c3OB2O)CC1 , IC50 = 1 to 10 µM

Lab entry: VIM-2 (Escherichia coli, UniProt Q5U7L7) assay, compound C[C@H](N)CNCCN[C@H]1CC[C@H](CC(=O)N[C@H]2Cc3cccc(C(=O)O)c3OB2O)CC1 , IC50 = < 0.1 µM

Lab entry: VIM-2 (Escherichia coli, UniProt Q5U7L7) assay, compound NC1CC(CC(=O)N[C@H]2Cc3cccc(C(=O)O)c3OB2O)C1 (some centres unmarked) , IC50 = 0.1 to 1 µM

Lab entry: VIM-2 (Escherichia coli, UniProt Q5U7L7) assay, compound N[C@H]1CC[C@H](CCC(=O)N[C@H]2Cc3cccc(C(=O)O)c3OB2O)CC1 , IC50 = 1 to 10 µM

Lab entry: VIM-2 (Escherichia coli, UniProt Q5U7L7) assay, compound CN(C)[C@H]1CC[C@H](CC(=O)N[C@H]2Cc3cccc(C(=O)O)c3OB2O)CC1 , IC50 = 0.1 to 1 µM

====

Kindly supply the reported IC50 values for the records listed here.
# target: OXA-1 (Escherichia coli)
# protocolText: β-lactamase enzyme inhibition, OXA-1
# conditionDescription: substrate Nitrocefin 100 μM, 486 nm; read-out: Class D OXA-1 IC50

# IC50 (compound: CN1CCN([C@H]2CC[C@H](CC(=O)N[C@H]3Cc4cccc(C(=O)O)c4OB3O)CC2)C1=N ) is < 100 nM

# IC50 (compound: O=C(CC1CCC(N2CCOCC2)CC1)N[C@H]1Cc2cccc(C(=O)O)c2OB1O (stereo partly shown) ) is < 100 nM

# IC50 (compound: O=C(C[C@H]1CC[C@H](N2CCNCC2)CC1)N[C@H]1Cc2cccc(C(=O)O)c2OB1O ) is < 100 nM

# IC50 (compound: NCC1CCC(CC(=O)N[C@H]2Cc3cccc(C(=O)O)c3OB2O)(C[N+](=O)[O-])CC1 (stereo partly shown) ) is 100 to 1000 nM

# IC50 (compound: O=C(C[C@H]1CC[C@H](NCc2nccs2)CC1)N[C@H]1Cc2cccc(C(=O)O)c2OB1O ) is < 100 nM

# IC50 (compound: C[C@H](N)CNCCN[C@H]1CC[C@H](CC(=O)N[C@H]2Cc3cccc(C(=O)O)c3OB2O)CC1 ) is < 100 nM

# IC50 (compound: COC(=O)NCCN[C@H]1CC[C@H](CC(=O)N[C@H]2Cc3cccc(C(=O)O)c3OB2O)CC1 ) is < 100 nM

# IC50 (compound: N=CN[C@H]1CC[C@H](CC(=O)N[C@H]2Cc3cccc(C(=O)O)c3OB2O)CC1 ) is 100 to 1000 nM

# IC50 (compound: NC1CN(C2CCC(CC(=O)N[C@H]3Cc4cccc(C(=O)O)c4OB3O)CC2)C1 (stereo partly shown) ) is < 100 nM

# IC50 (compound: N[C@H]1CC[C@H](CCC(=O)N[C@H]2Cc3cccc(C(=O)O)c3OB2O)CC1 ) is < 100 nM

# IC50 (compound: CN(C)C[C@H]1CC[C@H](CC(=O)N(C)[C@H]2Cc3cccc(C(=O)O)c3OB2O)CC1 ) is 100 to 1000 nM

# IC50 (compound: N[C@@H](CO)CN[C@H]1CC[C@H](CC(=O)N[C@H]2Cc3cccc(C(=O)O)c3OB2O)CC1 ) is < 100 nM

# IC50 (compound: O=C(O)CN[C@H]1CC[C@H](CC(=O)N[C@H]2Cc3cccc(C(=O)O)c3OB2O)CC1 ) is 100 to 1000 nM

# IC50 (compound: NCCNC[C@H]1CC[C@H](CC(=O)N[C@H]2Cc3cccc(C(=O)O)c3OB2O)CC1 ) is 100 to 1000 nM

# IC50 (compound: C[C@H](N)CN[C@H]1CC[C@H](CC(=O)N[C@H]2Cc3cccc(C(=O)O)c3OB2O)CC1 ) is < 100 nM

# IC50 (compound: N=C(N)N[C@H]1CC[C@H](CCC(=O)N[C@H]2Cc3cccc(C(=O)O)c3OB2O)CC1 ) is < 100 nM
